Cited source: patent US20130330346A1

System tested: T1, Cynomolgus CXCR2 (cynomolgus, UniProt Q28519 3-353 (rhesus entry))
T1 construct: On transfected HEK293T or RBL-2H3 cells; native on cynomolgus neutrophils in the WBSC assay; also called cCXCR2; cynoCXCR2
T1 chain: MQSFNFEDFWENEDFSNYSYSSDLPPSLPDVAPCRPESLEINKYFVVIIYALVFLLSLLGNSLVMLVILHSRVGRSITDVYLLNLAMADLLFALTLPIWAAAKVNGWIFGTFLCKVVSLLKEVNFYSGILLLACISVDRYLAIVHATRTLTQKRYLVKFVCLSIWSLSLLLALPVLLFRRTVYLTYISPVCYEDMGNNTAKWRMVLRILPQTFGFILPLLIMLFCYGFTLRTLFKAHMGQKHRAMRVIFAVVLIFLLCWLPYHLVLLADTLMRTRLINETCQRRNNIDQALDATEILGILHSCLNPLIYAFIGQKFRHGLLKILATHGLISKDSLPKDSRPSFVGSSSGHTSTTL
Assay procedure: FACS competition vs 3 nM FMAT-Blue Gro-α
Reported % inhibition of max values are given for each entry in this list.
Give your result as the value with the unit written after it.

Record summary for 163E3 (VHH, Tested as periplasmic extract (pAX50) and as purified His6-tagged protein (pAX100); also called 163E03; not shown: C-terminal c-myc tag and His6 tag coded by the vector) VHH: EVQLVESGGGLVQPGGSLRLSCVASGRIFSSNAMGWFRQAPGKEREFVAAITWRSGGSAYYADSAKGRFTISRDNAKNTVYLQMNSLKPEDTAVYYCAAGGSSWLSFPPDYWGQGTQVTVSS : reported % inhibition of max = 83.5%

% inhibition of max reading for 2B2 (VHH, Tested as periplasmic extract (pAX50) and as purified His6-tagged protein (pAX100); also called 002B02; not shown: C-terminal c-myc tag and His6 tag coded by the vector) VHH: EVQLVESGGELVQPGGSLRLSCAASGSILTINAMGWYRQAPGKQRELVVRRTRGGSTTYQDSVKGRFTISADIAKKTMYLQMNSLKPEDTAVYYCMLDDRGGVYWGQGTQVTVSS : 64%

% inhibition of max measured on 54B12 (VHH, Tested as periplasmic extract (pAX50) and as purified His6-tagged protein (pAX100); also called 054B12; not shown: C-terminal c-myc tag and His6 tag coded by the vector) VHH: EVQLVESGGGLVQAGGSLTLSCAVSGSTFRINTMGWYRRAPGKQRELVAARDRGGYINYVDSVKGRFTVSRDNAKPTMYLQMNSLKPEDTAVYYCHAGTQDRTGRNFDRWGQGTQVTVSS = 63%

Kindly review the next binder as well.
Value of % inhibition of max reported for the binder 97A9 (VHH, Tested as periplasmic extract (pAX50) and as purified His6-tagged protein (pAX100); also called 097A09; not shown: C-terminal c-myc tag and His6 tag coded by the vector) VHH: EVQLVESGGGLVQPGGSLRLSCVASGSIVRINTMGWYRQTPGKQRELVADITSGGNINYIDAVKGRFTISRDNTKNTVYLQMNSLKPEDTAVYYCNAEIVVLVGVWTQRARTGNYWGQGTQVTVSS is 53%
